SUBJECT OF TEST: Acetylcholinesterase (Electrophorus electricus) (UniProt O42275)
Sequence (O42275 24-633 limits assumed): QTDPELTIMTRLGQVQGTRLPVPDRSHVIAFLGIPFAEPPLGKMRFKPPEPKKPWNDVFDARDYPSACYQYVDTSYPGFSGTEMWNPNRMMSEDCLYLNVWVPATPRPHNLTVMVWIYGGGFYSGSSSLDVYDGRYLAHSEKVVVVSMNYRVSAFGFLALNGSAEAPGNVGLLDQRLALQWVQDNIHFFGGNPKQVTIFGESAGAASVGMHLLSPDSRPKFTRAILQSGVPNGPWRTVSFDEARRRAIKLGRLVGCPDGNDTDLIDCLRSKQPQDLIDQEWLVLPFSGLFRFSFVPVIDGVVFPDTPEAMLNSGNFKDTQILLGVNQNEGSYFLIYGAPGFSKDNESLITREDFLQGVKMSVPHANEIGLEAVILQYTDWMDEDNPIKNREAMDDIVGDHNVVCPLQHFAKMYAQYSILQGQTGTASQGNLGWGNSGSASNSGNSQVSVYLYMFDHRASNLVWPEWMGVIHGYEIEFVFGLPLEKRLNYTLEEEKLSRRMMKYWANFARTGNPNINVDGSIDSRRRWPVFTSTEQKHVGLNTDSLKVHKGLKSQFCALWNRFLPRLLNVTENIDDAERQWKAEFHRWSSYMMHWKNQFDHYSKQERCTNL
MEASUREMENT DESCRIPTION: Inhibition of electric eel AchE using acetylthiocholine iodide as substrate at <10 uM measured for 3 mins by Ellman's method relative to control
Give yes (1) when the value for inhibition is at least 20%. Give no (0) when it is less.

Solved cases (3 shown):
SMILES DATA | ASSIGNED CLASS
O=C(CN(Cc1ccccc1)Cc1ccco1)Nc1cccc(Br)c1 | no (0)
CCCN(CCCc1ccccc1)Cc1ccc2ccccc2c1 | yes (1)
O=C(CN(Cc1ccccc1)Cc1ccco1)Nc1ccc2c(c1)OCO2 | no (0)

Check this compound for inhibition at or above 20%: N#Cc1ccccc1NC(=O)CN(Cc1ccccc1)Cc1ccco1
no (0)

Check this compound for inhibition at or above 20%: CC(C)CN(CCCc1ccccc1)Cc1ccc2ccccc2c1
no (0)

Check this compound for inhibition at or above 20%: O=C(CN(Cc1ccccc1)Cc1ccco1)Nc1ccc2ccccc2c1
no (0)

---

MEASUREMENT DESCRIPTION: Neurotoxicity against mouse HT-22 cells assessed as survival rate incubated for 24 hrs by MTT assay relative to control
Assay type: toxicity, cell-based
Set-up: concentration or dose not given beside the values
CONDITION SUMMARY: read-out: Survival
Exercise: for every item that follows, state its recorded viability at 24 h.
One number for each entry, in %.

Could you report viability at 24 h for every entry in the following list?
1. CC(C)CN(CCCc1ccccc1)Cc1ccc2ccccc2c1
2. Cc1ccccc1NC(=O)CN(Cc1ccc2ccccc2c1)Cc1ccco1
3. CCCCN(CCCc1ccccc1)Cc1ccc2ccccc2c1
4. CCCN(CC(=O)Nc1ccccc1C)Cc1ccc2ccccc2c1
5. Cc1cccc(NC(=O)CN(Cc2ccc3ccccc3c2)Cc2ccco2)c1
6. O=C(CN(Cc1ccc2ccccc2c1)Cc1ccco1)Nc1ccccc1
7. CCCCN(CC(=O)Nc1ccccc1C)Cc1ccc2ccccc2c1

[83.5, 67.1, 51.2, 51.6, 91.4, 86.5, 83.1]

---

MEASUREMENT DESCRIPTION: Effective permeability of compound at 25 ug/ml incubated for 18 hrs by PAMPA-BBB assay
Assay type: ADME
CONDITION SUMMARY: dose 25 µg/ml, read-out: Peff
REPORTED ENDPOINT: Papp at 18 h, 25 ug/ml (×10⁻⁶ cm/s)
Give bare numbers, in ×10⁻⁶ cm/s.

Worked examples follow.
SMILES DATA | QUANTITATIVE RESULT
Cc1cccc(NC(=O)CN(Cc2ccccc2)Cc2ccco2)c1C | 9.47
Cc1cccc(NC(=O)CN(Cc2ccc3ccccc3c2)Cc2ccco2)c1 | 9.07
CCCN(CCCc1ccccc1)Cc1ccc2ccccc2c1 | 10.3
Cc1ccccc1NC(=O)CN(Cc1ccc2ccccc2c1)Cc1ccco1 | 5.67
O=C(CN(Cc1ccc2ccccc2c1)Cc1ccco1)Nc1ccccc1 | 7.81
O=C(CN(Cc1ccco1)Cc1c[nH]c2ccccc12)Nc1ccccc1 | 7.3
O=C(CN(Cc1ccco1)Cc1ccccc1[N+](=O)[O-])Nc1ccccc1 | 4.93
Cc1ccccc1NC(=O)CN(Cc1ccc2ccccc2c1)CC(C)C | 13.1
C[C@]12CC[C@@H]3c4ccc(O)cc4CC[C@H]3[C@@H]1CC[C@@H]2O | 14.6
CCCN(CC(=O)Nc1ccccc1C)Cc1ccc2ccccc2c1 | 11.9

Could you report Papp at 18 h, 25 ug/ml for every entry in the following list?
1. CCCCN(CC(=O)Nc1ccccc1C)Cc1ccc2ccccc2c1
2. CCN(CC)CCN(CC(=O)Nc1ccccc1C)Cc1ccc2ccccc2c1
3. CN(C)CCCN1c2ccccc2Sc2ccc(Cl)cc21

13.9
10.6
6.69

Could you report Papp at 18 h, 25 ug/ml for every entry in the following list?
1. CCCCN(CCCc1ccccc1)Cc1ccc2ccccc2c1
2. CC(C)CN(CCCc1ccccc1)Cc1ccc2ccccc2c1

10.1
9.87
